System under test: Human immunodeficiency virus type 1 protease (Human immunodeficiency virus 1)
Method notes: In vitro inhibitory activity against mutant HIV-1 (A-44)protease
Answer each item with its documented pIC50.
Give bare numbers, as −log10 of the molar value.

CN(C)c1ccc2ccc(S(=O)(=O)N3CCN(C[C@@H](O)C[C@@H](Cc4ccccc4)C(=O)N[C@@H]4c5ccccc5C[C@H]4O)[C@H](C(=O)NC(C)(C)C)C3)cc2n1 : 8.66
CC1=CSC2C(CN3CCN(C[C@@H](O)C[C@@H](Cc4ccccc4)C(=O)N[C@@H]4c5ccccc5C[C@H]4O)[C@H](C(=O)NC(C)(C)C)C3)N=CN12 (some centres undefined) : 6.42
Cn1cc(CN2CCN(C[C@@H](O)C[C@@H](Cc3ccccc3)C(=O)N[C@@H]3c4ccccc4C[C@H]3O)[C@H](C(=O)NC(C)(C)C)C2)c2ccccc21 : 6.48

Ask | Recorded pIC50 of Cn1cc(CN2CCN(C[C@@H](O)C[C@@H](Cc3ccccc3)C(=O)N[C@@H]3c4ccccc4C[C@H]3O)[C@H](C(=O)NC(C)(C)C)C2)ccc1=O , please.
Reply | 6.88

* * *

System under test: Human immunodeficiency virus type 1 protease (Human immunodeficiency virus 1, UniProt Q72874)
Method notes: In vitro inhibitory activity against wild type HIV-1 protease
Answer each item with its documented IC50.
Answers are plain numbers, in nM.

CC(C)(C)NC(=O)[C@@H]1CN(Cc2nc3ccccc3s2)CCN1C[C@@H](O)C[C@@H](Cc1ccccc1)C(=O)N[C@@H]1c2ccccc2C[C@H]1O : 1.2
Cn1nc(C(F)(F)F)cc1-c1ccc(CN2CCN(C[C@@H](O)C[C@@H](Cc3ccccc3)C(=O)N[C@@H]3c4ccccc4C[C@H]3O)[C@H](C(=O)NC(C)(C)C)C2)s1 : 0.13
Cn1cc(CN2CCN(C[C@@H](O)C[C@@H](Cc3ccccc3)C(=O)N[C@@H]3c4ccccc4C[C@H]3O)[C@H](C(=O)NC(C)(C)C)C2)c2ccccc21 : 6.7

Could you now look at the following compound, please?
Ask | Recorded IC50 of CC(C)(C)NC(=O)[C@@H]1CN(Cc2cccc(C(C)(C)NC(=O)OC(C)(C)C)c2)CCN1C[C@@H](O)C[C@@H](Cc1ccccc1)C(=O)N[C@@H]1c2ccccc2C[C@H]1O , please.
Reply | 28

* * *

Answer each item with its documented AUC.
Method notes: Tested for the pharmacokinetic data, area under the curve of concentration versus time in dog
Assay type: ADME, organism-based, Canis lupus familiaris
Stated conditions: in vivo

Worked set:
CC(C)(C)NC(=O)[C@@H]1CN(Cc2cccnc2)CCN1C[C@@H](O)C[C@@H](CC1CC1)C(=O)NC1c2cccc(F)c2C[C@H]1O (single isomer, unassigned) : 0.525 µM·h
CC(C)(C)NC(=O)[C@@H]1CN(Cc2cccnc2)CCN1C[C@@H](O)C[C@@H](Cc1ccc(F)cc1)C(=O)NC1c2cccc(Cl)c2C[C@H]1O (single isomer, unassigned) : 0.181 µM·h

Could you now look at the following molecule, please?
Ask | Recorded AUC of C[C@@H]1CC[C@@H](O)C1NC(=O)[C@H](CC1CCCCC1)C[C@H](O)CN1CCN(Cc2cccnc2)C[C@H]1C(=O)NC(C)(C)C (single isomer, unassigned) , please.
Reply | 0.504 µM·h

Cited source: ChEMBL document CHEMBL1135057
